Some compounds, each annotated with its measured CC50 at 6 days.
# procedure-summary: Cell viability assay (AlamarBlue) in HepAD38 cells
# conditions: human
reported-endpoint: CC50 at 6 days

- Cc1cc(F)cc2[nH]c(C(=O)N3CCc4[nH]nc(C5CCCO5)c4C3)cc12 (stereo not drawn) [Example 342]: > 10 µM
- NC(=O)c1n[nH]c2c1CN(C(=O)c1cc3ccccc3[nH]1)CC2 [Example 106]: > 100 µM
- Cc1cccc2[nH]c(C(=O)N3CCc4[nH]ncc4C3)cc12 [Example 136]: > 100 µM
- CN(CCO)C(=O)c1n[nH]c2c1CN(C(=O)c1cc3c(Br)cccc3[nH]1)CC2 [Example 30]: > 10 µM
- CC(=O)N1CCN(C(=O)c2n[nH]c3c2CN(C(=O)c2cc4ccccc4[nH]2)CC3)C(C)(C)C1 [Example 163]: > 10 µM
- CN(C(=O)c1[nH]nc2c1CN(C(=O)c1cc3c(F)cc(F)cc3[nH]1)CC2)C1CC1 [Example 323]: > 10 µM
- Cc1cccc2[nH]c(C(=O)N3CCc4[nH]nc(C(=O)N(C)CCO)c4C3)cc12 [Example 63]: > 100 µM
- CCc1ccc(F)c2[nH]c(C(=O)N3CCc4[nH]nc(C(=O)N(C)CCO)c4C3)cc12 [Example 9]: > 10 µM
- CN(CCO)C(=O)c1n[nH]c2c1CN(C(=O)c1cc3c(F)cc(F)cc3[nH]1)CC2 [Example 28]: > 10 µM
- C[C@@H]1CCC[C@@H](C)N1C(=O)c1n[nH]c2c1CN(C(=O)c1cc3ccccc3[nH]1)CC2 [Example 146]: > 10 µM
- C[C@@H]1CCCCN1C(=O)c1n[nH]c2c1CN(C(=O)c1cc3ccccc3[nH]1)CC2 [Example 148]: > 10 µM
- COCC1(N(C)C(=O)c2n[nH]c3c2CN(C(=O)c2cc4cc(F)c(F)cc4[nH]2)CC3)CC1 [Example 300]: > 10 µM
- CS(=O)(=O)Nc1n[nH]c2c1CN(C(=O)c1cc3ccccc3[nH]1)CC2 [Example 82]: > 100 µM
- O=C(c1cc2c(Cl)cccc2[nH]1)N1CCc2[nH]nc(C(=O)N3CCCC34CC4)c2C1 [Example 216]: > 10 µM
- COCC1(N(C)C(=O)c2n[nH]c3c2CN(C(=O)c2cc4c(F)c(F)ccc4[nH]2)CC3)CC1 [Example 267]: > 10 µM
- O=C(c1cc2ccc(F)cc2[nH]1)N1CCc2n[nH]c(C3CCC3)c2C1 [Example 393]: > 10 µM
- O=C(c1cc2ccccc2[nH]1)N1CCc2[nH]nc(C(=O)N3CC4COCC4C3)c2C1 (stereo not drawn) [Example 153]: > 10 µM
- CCc1cccc2[nH]c(C(=O)N3CCc4n[nH]c(C(=O)N(C)C5CC5)c4C3)cc12 [Example 328]: > 10 µM

* * *

# procedure-summary: Cell viability assay (AlamarBlue) in HepAD38 cells
# conditions: human
reported-endpoint: CC50 at 6 days

• CN(CCN)C(=O)c1[nH]nc2c1CN(C(=O)c1cc3ccccc3[nH]1)CC2 = > 10 µM
• COCC1(N(C)C(=O)c2n[nH]c3c2CN(C(=O)c2cc4c(C)cc(F)cc4[nH]2)CC3)CC1 = > 10 µM
• CN(C(=O)c1n[nH]c2c1CN(C(=O)c1cc3ccccc3[nH]1)CC2)C1CCOC1 (stereo not drawn) = > 10 µM
• O=C(c1cc2c(F)cc(F)cc2[nH]1)N1CCc2n[nH]c(-c3cscn3)c2C1 = > 10 µM
• CN(CCO)C(=O)c1n[nH]c2c1CN(C(=O)c1cc3ccc(Cl)cc3[nH]1)CC2 = > 100 µM
• O=C(c1cc2ccccc2[nH]1)N1CCc2[nH]nc(NCC3CCOCC3)c2C1 = > 100 µM

The reported measurements were obtained from patent US11236087B2.
